List of kon values.
# EXPERIMENTAL_TARGET: T1, Monomeric 8-histidine tagged human EGFRvIII extracellular domain (human, UniProt P00533 298-645)
# T1 construct: Analyte in all SPR assays; not shown: 8-histidine tag
# ASSAY: SPR, captured by anti-mouse Fc, 37 C
Don't forget the unit after the number, please.

Some binders with recorded kon:
[
  {
    "BINDER": "11B11 (antibody, V domains shown, Hybridoma supernatant (AlivaMab mouse); captured/detected via mouse Fc) VH: QVTLKESGPVLVKPTETLTLTCTVSGFSLSNAKMGVSWIRQPPGKALEWLAHIFSTDEKSIRRSLRSRLTMSKDTSKSQVVLTMTNMDPVDTATYYCVRDSSNYEGYFDYWGQGTLVTVSS VL: EVLMTQSPATLSVSPGERATLSCRASQSVSTNFAWYQQRPGQAPRLLLFGASTRATGIPGRFSGSGSGTENILTISSLQSEDFAIYFCQQYKDWPFTFGPGSKVEIK",
    "kon": "52100 M⁻¹ s⁻¹"
  },
  {
    "BINDER": "20E12 (antibody, V domains shown, Hybridoma supernatant (AlivaMab mouse); captured/detected via mouse Fc) VH: EVNLVESGGGLVKPGGSLRLSCEASGFTFSYAWMSWVRQAPGKGLEWVGRIKSIADGGATDYAAPVRNRFTISRDDSRNTLYLEMHSLKTEDTAVYYCTTIPGNDAFDMWGQGTMVTVSS VL: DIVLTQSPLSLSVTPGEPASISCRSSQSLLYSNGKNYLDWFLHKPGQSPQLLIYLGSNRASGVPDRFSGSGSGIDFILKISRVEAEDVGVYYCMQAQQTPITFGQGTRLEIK",
    "kon": "39900 M⁻¹ s⁻¹"
  }
]

Now look at this entry.
Exam item: Looking for the measured kon of 20G5 (antibody, V domains shown, Hybridoma supernatant (AlivaMab mouse); captured/detected via mouse Fc) VH: EVQLVESGGDLVKPGGSLRLSCAASGFTFTNAWMSWVRQAPGKGLEWVGRIKSKIDGGTTDYAAPVKGRFIISRDDSKNTLSLQMNSLKTEDTAMYYCTTAPGGPFDYWGQGSLVTVSS VL: DIVLTQSPLSLPVTPGEPASISCRSSQSLLYSDRRNYLDWFLQKPGQSPHLLIYLGSYRASGVPDRFSGSGSGTDFTLKISRVEAEDVGVYYCMQALQIPITFGQGTRLEIK , can you help?
Marked response: 125000 M⁻¹ s⁻¹
